- assayed.target: MBD2-MBD (methyl-binding domain of MBD2) (Homo sapiens, UniProt Q9UBB5 Q9UBB5:145-213)
- Sequence (Q9UBB5 145-213, one chain of several): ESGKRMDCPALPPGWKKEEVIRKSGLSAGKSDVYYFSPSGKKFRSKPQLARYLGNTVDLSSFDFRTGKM
- experimental.details: FP; 10 nM hairpin; 50 mM NaCl, 1 mM MgCl2, 10 mM Tris pH 7.4, room temp; text gives 2 or 3 sites as 156 and 222 nM respectively but cites FIGS. 2A (three pairs) and
- study.conditions: tags: C-terminal 6xHis (pFBC6H baculovirus vector, Sf9), label: 5'-6FAM
quantity.kind: EC50 (nM)
The reply should contain only the number, in nM.

Problem: Can you share its EC50? I mean this binder: ATCGTCGTACGTTTTCGTACGACGAT (structured_DNA, 5mC at 1st, 2nd, 5th and 6th CpGs from 5' end (C3, C6, C20, C23)) [2 symmetrically methylated CpG hairpin]
Result: 156
